Quick reference: log10 MIC of the listed items.
# System: methicillin-resistant Staphylococcus aureus H 5996/08 (MRSA)
# TEST DETAILS: Antibacterial microdilution broth method
# Assay type: cell-based
# SETUP CONDITIONS: 48 h, read-out: MIC/IC90 MRSA H 5996/08
Annotation: log10 of MIC, µM basis.

What measured log10 MIC goes with CC1(C)S[C@@H]2[C@H](NC(=O)Cc3ccccc3)C(=O)N2[C@H]1C(=O)O [PNC, benzylpenicillin, reference compound] ?
2.10

// query log10 MIC value for entry O=C(Oc1ccc(Cl)cc1C(=O)Nc1ccc(Cl)c(Cl)c1)c1ccc(C(F)(F)F)cc1 [1e]
-0.01

Please report the recorded log10 MIC for O=C(Oc1cc(Cl)ccc1C(=O)Nc1ccc(C(F)(F)F)cc1)c1ccc(C(F)(F)F)cc1 [1p] .
-0.01

I'd like to know its log10 MIC. The compound in question is O=C(Oc1ccc(Cl)cc1C(=O)Nc1ccc(F)cc1)c1ccc(C(F)(F)F)cc1 [1m]
1.19

Quick check: log10 MIC of O=C(Oc1ccc(Cl)cc1C(=O)Nc1ccc(C(F)(F)F)cc1)c1ccc(C(F)(F)F)cc1 [1o] ?
0.89

// next entry
What measured log10 MIC goes with O=C(Oc1ccc(Cl)cc1C(=O)Nc1cccc(F)c1)c1ccc(C(F)(F)F)cc1 [1k] ?
0.29

* * *

# Tested on: Staphylococcus aureus CCM 4516/08
# TEST DETAILS: Antibacterial microdilution broth method
# Format: cell-based
# SETUP CONDITIONS: CCM4516, 24 h, read-out: MIC/IC90 S. aureus CCM 4516/08
Form field: MIC (one value per entry).
# unit: µM | format: bare number

Here are 6 molecules together with their reported answers.
Look up MIC with Staphylococcus aureus CCM 4516/08 for this molecule: CC1(C)S[C@@H]2[C@H](NC(=O)Cc3ccccc3)C(=O)N2[C@H]1C(=O)O [PNC, benzylpenicillin, reference compound]
0.98

Any idea what MIC came out for O=C(Oc1cc(Cl)ccc1C(=O)Nc1ccc(C(F)(F)F)cc1)c1ccc(C(F)(F)F)cc1 [1p] on Staphylococcus aureus CCM 4516/08?
0.49

Provide the documented MIC with Staphylococcus aureus CCM 4516/08 as the system for O=C(Oc1ccc(Cl)cc1C(=O)Nc1ccc(C(F)(F)F)cc1)c1ccc(C(F)(F)F)cc1 [1o]
3.9

Param readout = MIC; param system = Staphylococcus aureus CCM 4516/08; param query = O=C(Oc1cc(Cl)ccc1C(=O)Nc1cccc(Cl)c1)c1ccc(C(F)(F)F)cc1 [1b] ; response: value
0.98

Item: O=C(Oc1cc(Cl)ccc1C(=O)Nc1cccc(Br)c1)c1ccc(C(F)(F)F)cc1 [1h] Test system: Staphylococcus aureus CCM 4516/08 Read-out: MIC Value: ?
0.98

Recorded MIC for O=C(Oc1ccc(Cl)cc1C(=O)Nc1ccc(F)cc1)c1ccc(C(F)(F)F)cc1 [1m] with Staphylococcus aureus CCM 4516/08, please?
7.81

New cases:
Quick check: MIC on Staphylococcus aureus CCM 4516/08, item O=C(Oc1ccc(Cl)cc1C(=O)Nc1ccc(Cl)c(Cl)c1)c1ccc(C(F)(F)F)cc1 [1e] ?
0.49

Find the measured MIC: item O=C(Oc1ccc(Cl)cc1C(=O)Nc1cccc(F)c1)c1ccc(C(F)(F)F)cc1 [1k] , target or system Staphylococcus aureus CCM 4516/08.
3.9

Request: MIC, test system Staphylococcus aureus CCM 4516/08, entry O=C(Oc1cc(Cl)ccc1C(=O)Nc1ccc(Br)cc1)c1ccc(C(F)(F)F)cc1 [1j]
0.49
